- test_target: NHERF4_1, Q86UT5-2
- Sequence (Q86UT5 other isoform, or with tags, fused parts or gaps): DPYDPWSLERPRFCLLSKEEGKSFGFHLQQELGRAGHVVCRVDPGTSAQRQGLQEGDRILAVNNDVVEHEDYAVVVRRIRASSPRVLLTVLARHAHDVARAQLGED
- method_summary: holdup assay
- Design: key: below the threshold = too weak to quantify, mostly under pKd 3.1 to 4
- assay_conditions: plain residues with an end cap or a label only (N-terminal biotin on a linker: ado-ado)
reported_property: pKd

Example cases with answers are listed next.
| binder | pKd |
| --- | --- |
| EKKTLIGIKL [GOT1L1, Q8NHS2] | 3.81 |
| EVEEFPETSV [TRPV3, Q8NET8] | below the threshold |
| PPYRHRNTVV [ERBB4, Q15303] | below the threshold |
| HSGYRLNDYV [CLDN14, O95500] | 3.57 |
| SGSLKLMTTV [DACT1, Q9NYF0] | below the threshold |
| QSLNRMEYIV [JAG1, P78504] | below the threshold |
| SKENVQETQI [LRRC4B, Q9NT99] | below the threshold |

Which measured pKd value corresponds to LGRSTPQSEV [DGKH, Q86XP1] ?
below the threshold
